molecular target: PI3Kbeta (Homo sapiens, UniProt P42338); experiment: Biochemical PI3Kbeta assay (neomycin SPA, lipid phosphorylation); conditions: human recombinant GST-PI3K
Sequence (P42338 whole entry): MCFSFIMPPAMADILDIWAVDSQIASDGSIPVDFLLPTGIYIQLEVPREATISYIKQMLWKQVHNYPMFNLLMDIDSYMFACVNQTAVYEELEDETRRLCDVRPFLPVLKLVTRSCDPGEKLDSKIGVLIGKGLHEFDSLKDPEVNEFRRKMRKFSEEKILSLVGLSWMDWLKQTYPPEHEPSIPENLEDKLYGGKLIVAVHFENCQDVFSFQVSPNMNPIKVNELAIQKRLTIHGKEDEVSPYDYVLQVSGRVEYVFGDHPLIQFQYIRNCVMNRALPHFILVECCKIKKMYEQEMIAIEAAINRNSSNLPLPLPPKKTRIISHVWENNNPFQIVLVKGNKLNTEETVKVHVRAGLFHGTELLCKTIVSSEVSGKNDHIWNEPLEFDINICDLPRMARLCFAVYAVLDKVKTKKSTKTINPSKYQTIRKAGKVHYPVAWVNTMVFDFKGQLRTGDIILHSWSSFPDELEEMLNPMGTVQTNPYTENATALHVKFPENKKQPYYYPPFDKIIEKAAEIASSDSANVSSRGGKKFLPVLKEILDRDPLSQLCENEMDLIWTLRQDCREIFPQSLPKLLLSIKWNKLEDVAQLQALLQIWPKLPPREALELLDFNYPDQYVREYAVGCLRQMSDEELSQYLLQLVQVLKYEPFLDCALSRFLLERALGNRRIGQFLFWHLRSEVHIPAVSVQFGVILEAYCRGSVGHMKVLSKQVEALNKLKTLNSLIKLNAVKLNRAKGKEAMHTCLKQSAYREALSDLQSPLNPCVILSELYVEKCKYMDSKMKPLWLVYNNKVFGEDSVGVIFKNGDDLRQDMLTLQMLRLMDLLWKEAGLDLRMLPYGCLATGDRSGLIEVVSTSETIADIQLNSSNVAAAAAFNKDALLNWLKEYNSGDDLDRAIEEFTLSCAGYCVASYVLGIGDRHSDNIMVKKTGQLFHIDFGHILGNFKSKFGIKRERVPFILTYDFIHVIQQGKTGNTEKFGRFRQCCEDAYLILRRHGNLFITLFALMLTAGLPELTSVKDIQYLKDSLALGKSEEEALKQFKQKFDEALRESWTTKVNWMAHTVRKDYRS
Sequence (P27986 whole entry partner): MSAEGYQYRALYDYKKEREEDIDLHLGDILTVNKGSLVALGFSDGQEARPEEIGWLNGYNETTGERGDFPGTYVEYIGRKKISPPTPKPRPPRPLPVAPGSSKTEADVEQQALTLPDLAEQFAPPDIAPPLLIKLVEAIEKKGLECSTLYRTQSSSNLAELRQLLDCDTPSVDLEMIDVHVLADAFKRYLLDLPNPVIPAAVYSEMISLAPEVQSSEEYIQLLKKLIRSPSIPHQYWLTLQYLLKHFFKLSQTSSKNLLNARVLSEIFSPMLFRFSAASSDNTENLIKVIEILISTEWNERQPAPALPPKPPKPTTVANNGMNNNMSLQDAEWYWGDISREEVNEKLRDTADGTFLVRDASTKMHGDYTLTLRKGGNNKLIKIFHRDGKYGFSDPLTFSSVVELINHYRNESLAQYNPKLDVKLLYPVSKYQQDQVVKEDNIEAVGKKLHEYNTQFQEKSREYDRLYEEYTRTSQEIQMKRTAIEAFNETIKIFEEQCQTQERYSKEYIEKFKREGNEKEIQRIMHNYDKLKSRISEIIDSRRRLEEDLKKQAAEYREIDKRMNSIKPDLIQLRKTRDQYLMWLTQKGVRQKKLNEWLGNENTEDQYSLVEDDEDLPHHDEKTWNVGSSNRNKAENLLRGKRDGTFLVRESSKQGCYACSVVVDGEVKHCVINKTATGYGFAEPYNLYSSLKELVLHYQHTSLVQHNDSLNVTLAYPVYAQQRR
quantityMeasured: IC50

>>> df
                                   molecule                       experimentaltarget   assayresult
0  COc1cccc(-n2c(-c3cc(-c4cnc5[nH]ccc5c4)ccn3)cn(C)c2=O)c1  PI3Kbeta (Homo sapiens, UniProt P42338)  0.1 to 10 µM
1  Cn1cc(-c2cc(-c3cnc4[nH]cnc4c3)ccn2)n(-c2ccc(C(C)(C)C#N)cc2)c1=O  PI3Kbeta (Homo sapiens, UniProt P42338)  0.1 to 10 µM
2  Cn1cc(-c2cc(-c3ccc4[nH]ccc4c3)ccn2)n(-c2ccc(N3CCNCC3)c(C(F)(F)F)c2)c1=O  PI3Kbeta (Homo sapiens, UniProt P42338)  0.1 to 10 µM
3  COc1ccc(-c2ccnc(-c3cn(C)c(=O)n3-c3ccc(C(C)(C)C#N)cc3)c2)cc1  PI3Kbeta (Homo sapiens, UniProt P42338)       > 10 µM
